Hey, just so you know, these numbers are from patent US20230263822A1.

# experimentNotes: Hematology assays in cynomolgus monkeys (Example 45)
# Type: in vivo
# testParameters: day 71
Could you please report measured reticulocytes for the items listed next?
Could you write the number and then its unit?

Known results for substances:
ISIS 416850: MOE gapmer, nucleobases 1275 to 1318 of SEQ ID NO: 1 (Table 8) (antisense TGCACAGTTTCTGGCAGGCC; MOE gapmer, wing and gap sizes not given here) = 1.8%
ISIS 417002: MOE gapmer, nucleobases 1275 to 1318 of SEQ ID NO: 1 (Table 8) (antisense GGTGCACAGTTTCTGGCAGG; MOE gapmer, wing and gap sizes not given here) = 1.3%
ISIS 416838: MOE gapmer, nucleobases 1018 to 1042 of SEQ ID NO: 1 (Table 6) (antisense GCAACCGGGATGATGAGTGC; MOE gapmer, wing and gap sizes not given here) = 1.3%
ISIS 416864: MOE gapmer, nucleobases 1275 to 1318 of SEQ ID NO: 1 (Table 8) (antisense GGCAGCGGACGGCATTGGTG; MOE gapmer, wing and gap sizes not given here) = 1.0%

Query :: Query (substance): ISIS 416858: MOE gapmer, nucleobases 1275 to 1318 of SEQ ID NO: 1 (Table 8) (antisense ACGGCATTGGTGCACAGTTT; MOE gapmer, wing and gap sizes not given here) ; field requested: reticulocytes
Result :: 1.3%

---

Could you please report measured Urine protein/creatinine ratio for the items listed next?
# testParameters: rat, in vivo, sc, 50 mg/kg
e = 2'-O-(2-methoxyethyl) (MOE); d = 2'-deoxy (DNA)
One number for each entry.

Known results for substances:
ISIS 413481: 5-10-5 MOE gapmer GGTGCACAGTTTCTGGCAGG (sugars from the 5' end e5 d10 e5, backbone and methylation of C not given here) = 3.6
ISIS 412224: 5-10-5 MOE gapmer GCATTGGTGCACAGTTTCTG (sugars from the 5' end e5 d10 e5, backbone and methylation of C not given here) = 3.8
ISIS 412223: 5-10-5 MOE gapmer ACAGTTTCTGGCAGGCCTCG (sugars from the 5' end e5 d10 e5, backbone and methylation of C not given here) = 4.6

Below: the item to evaluate.
Query :: Query (substance): ISIS 413482: 5-10-5 MOE gapmer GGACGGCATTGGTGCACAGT (sugars from the 5' end e5 d10 e5, backbone and methylation of C not given here) ; field requested: Urine protein/creatinine ratio
Result :: 4.8

---

# experimentNotes: Hematology assays in cynomolgus monkeys (Example 45)
# Assay type: in vivo
# testParameters: day 15; escalating dose regimen
endpointName: hemoglobin (g/dL)
Numbers only, in g/dL.

Known results for substances:
ISIS 416864: MOE gapmer, nucleobases 1275 to 1318 of SEQ ID NO: 1 (Table 8) (antisense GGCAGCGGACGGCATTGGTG; MOE gapmer, wing and gap sizes not given here) = 12.8
ISIS 416838: MOE gapmer, nucleobases 1018 to 1042 of SEQ ID NO: 1 (Table 6) (antisense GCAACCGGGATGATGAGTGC; MOE gapmer, wing and gap sizes not given here) = 12.9
ISIS 417002: MOE gapmer, nucleobases 1275 to 1318 of SEQ ID NO: 1 (Table 8) (antisense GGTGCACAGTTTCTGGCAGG; MOE gapmer, wing and gap sizes not given here) = 12.3

I'm hoping you can list hemoglobin for every substance here, please.
1. ISIS 416850: MOE gapmer, nucleobases 1275 to 1318 of SEQ ID NO: 1 (Table 8) (antisense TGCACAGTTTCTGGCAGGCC; MOE gapmer, wing and gap sizes not given here)
2. ISIS 416858: MOE gapmer, nucleobases 1275 to 1318 of SEQ ID NO: 1 (Table 8) (antisense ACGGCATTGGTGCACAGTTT; MOE gapmer, wing and gap sizes not given here)

Result ::
12.1
12.6

---

# testParameters: rat, in vivo, sc, 50 mg/kg
Could you please report measured Urine protein/creatinine ratio for the items listed next?
Give bare numbers.

ISIS 416866: MOE gapmer, nucleobases 1275 to 1318 of SEQ ID NO: 1 (Table 8) (antisense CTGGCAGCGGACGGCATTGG; MOE gapmer, wing and gap sizes not given here) = 6.2

Below: the item to evaluate.
Query :: Query (substance): ISIS 416863: MOE gapmer, nucleobases 1275 to 1318 of SEQ ID NO: 1 (Table 8) (antisense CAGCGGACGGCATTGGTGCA; MOE gapmer, wing and gap sizes not given here) ; field requested: Urine protein/creatinine ratio
Result :: 3.8

---

# Test system: human Factor 11 mRNA
# experimentNotes: Dose-dependent inhibition of human Factor 11 in HepB3 cells, electroporation (Example 7)
# Type: cell-based
# Method: The gapmers were also transfected via electroporation and their dose dependent inhibition of human Factor 11 mRNA was measured. […] After a treatment period of approximately 16 hours, RNA was isolated from the cells and human Factor 11 mRNA levels were measured by quantitative real-time PCR. […] Factor 11 mRNA levels were adjusted according to total RNA content, as measured by RIBOGREEN. […]
endpointName: pIC50
One number for each entry, as −log10 of the molar value.

Known results for substances:
416825 (antisense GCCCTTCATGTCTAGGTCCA; 5-10-5 gapmer, further chemistry not given here) [compound 416825] = 6.80
417002 (antisense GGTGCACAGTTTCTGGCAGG; 2-13-5 gapmer chemistry, further chemistry not given here) [compound 417002] = 5.92

Query :: Enter reported pIC50 observed with human Factor 11 mRNA for 416892 (antisense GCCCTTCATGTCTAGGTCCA; 3-14-3 chimeric gapmer, further chemistry not given here) [compound 416892]
Result :: 6.21

---

# experimentNotes: Hematology assays in cynomolgus monkeys (Example 46)
# Format: in vivo
# testParameters: Day 17
Strand notation (5' to 3'): a small letter for the sugar, then the base; units joined by * are phosphorothioate-linked, units joined directly phosphodiester-linked; [ ] holds rarer units or linkages, { } end groups; capitals alone tell only the bases. e = 2'-O-(2-methoxyethyl) (MOE); [5mC] = 5-methylcytosine; d = 2'-deoxy (DNA)
Could you please report measured MCH for the items listed next?
Could you write the number and then its unit?

Known results for substances:
ISIS 449708: 3-8-3, 4-8-4, 2-10-2, 3-10-3 or 4-10-4 MOE microwalk gapmer (Table 46) (antisense eA*e[5mC]*eA*dG*dT*dT*dT*d[5mC]*dT*dG*dG*e[5mC]*eA*eG) = 22.9 pg
ISIS 416858: MOE gapmer, nucleobases 1275 to 1318 of SEQ ID NO: 1 (Table 8) (antisense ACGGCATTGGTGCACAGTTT; MOE gapmer, wing and gap sizes not given here) = 23.1 pg

Below: the item to evaluate.
Query :: Query (substance): ISIS 449707: 3-8-3, 4-8-4, 2-10-2, 3-10-3 or 4-10-4 MOE microwalk gapmer (Table 46) (antisense e[5mC]*eA*e[5mC]*eA*dG*dT*dT*dT*d[5mC]*dT*dG*dG*e[5mC]*eA*eG*eG) ; field requested: MCH
Result :: 22.1 pg

---

# experimentNotes: Hematology assays in cynomolgus monkeys (Example 45)
# Assay type: in vivo
# testParameters: day 22; escalating dose regimen
Could you please report measured RBC count for the items listed next?
One number for each entry, in µL⁻¹.

I'm hoping you can list RBC count for every substance here, please.
1. ISIS 416838: MOE gapmer, nucleobases 1018 to 1042 of SEQ ID NO: 1 (Table 6) (antisense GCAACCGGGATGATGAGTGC; MOE gapmer, wing and gap sizes not given here)
2. ISIS 417002: MOE gapmer, nucleobases 1275 to 1318 of SEQ ID NO: 1 (Table 8) (antisense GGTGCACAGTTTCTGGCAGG; MOE gapmer, wing and gap sizes not given here)
3. ISIS 416864: MOE gapmer, nucleobases 1275 to 1318 of SEQ ID NO: 1 (Table 8) (antisense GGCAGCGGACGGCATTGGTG; MOE gapmer, wing and gap sizes not given here)

Result ::
5.4e+06
5.2e+06
5.3e+06

I'm hoping you can list RBC count for every substance here, please.
1. ISIS 416850: MOE gapmer, nucleobases 1275 to 1318 of SEQ ID NO: 1 (Table 8) (antisense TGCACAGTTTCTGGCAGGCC; MOE gapmer, wing and gap sizes not given here)
2. ISIS 416858: MOE gapmer, nucleobases 1275 to 1318 of SEQ ID NO: 1 (Table 8) (antisense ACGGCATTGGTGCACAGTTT; MOE gapmer, wing and gap sizes not given here)

Result ::
["5e+06", "5.3e+06"]

---

# experimentNotes: Kidney function, BUN, urine protein to creatinine ratio in cynomolgus monkeys (Example 46)
# Assay type: in vivo
# testParameters: Day −14 (before start of treatment)
Strand notation (5' to 3'): a small letter for the sugar, then the base; units joined by * are phosphorothioate-linked, units joined directly phosphodiester-linked; [ ] holds rarer units or linkages, { } end groups; capitals alone tell only the bases. e = 2'-O-(2-methoxyethyl) (MOE); [5mC] = 5-methylcytosine; d = 2'-deoxy (DNA)
Could you please report measured BUN levels for the items listed next?
Numbers only, in mg/dL.

Known results for substances:
ISIS 445522: 5-8-5 or 6-8-6 MOE microwalk gapmer (Table 44) (antisense eG*e[5mC]*eA*e[5mC]*eA*dG*dT*dT*dT*d[5mC]*dT*dG*dG*e[5mC]*eA*eG*eG*e[5mC]) = 23
ISIS 449707: 3-8-3, 4-8-4, 2-10-2, 3-10-3 or 4-10-4 MOE microwalk gapmer (Table 46) (antisense e[5mC]*eA*e[5mC]*eA*dG*dT*dT*dT*d[5mC]*dT*dG*dG*e[5mC]*eA*eG*eG) = 25

I'm hoping you can list BUN levels for every substance here, please.
1. ISIS 449710: 3-8-3, 4-8-4, 2-10-2, 3-10-3 or 4-10-4 MOE microwalk gapmer (Table 46) (antisense e[5mC]*eA*e[5mC]*dA*dG*dT*dT*dT*d[5mC]*dT*dG*dG*d[5mC]*eA*eG*eG)
2. ISIS 416850: MOE gapmer, nucleobases 1275 to 1318 of SEQ ID NO: 1 (Table 8) (antisense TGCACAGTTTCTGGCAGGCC; MOE gapmer, wing and gap sizes not given here)
3. ISIS 445531: 5-8-5 or 6-8-6 MOE microwalk gapmer (Table 44) (antisense eG*eG*e[5mC]*eA*eT*dT*dG*dG*dT*dG*d[5mC]*dA*d[5mC]*eA*eG*eT*eT*eT)

Result ::
1: 19; 2: 24; 3: 22
